# System: MDA-MB-468 breast
# method: NCI tumour cell line growth inhibition, 48 h
For each entry below, report its GI50 value.

{"compound": "NS(=O)(=O)c1cccc(-c2ccc3c(NC(=O)C4CC4)n[nH]c3c2)c1", "target.under.test": "MDA-MB-468 breast", "endpoint.label": "GI50", "assay.result": "5.25 µM"}

Each of the following entries comes with a recorded value; kindly state GI50 for each.
1. COc1ccc(C2C(C#N)=C(/N=C/c3ccc(Cl)cc3)Oc3c2sc2c(C)cccc32)cc1 (stereo not given)
2. O=C1CSC(c2ccccc2O)N1c1nnc(Cn2ccnc2)o1 (stereo not given)
3. CC(=O)Oc1ccccc1C(=O)[Se]C(=NC(C)C)NC(C)C
4. CCOC(=O)C1=C(C)N2C(=NC3=C(CCC/C3=C\c3ccc(Cl)cc3)C2c2ccc(Cl)cc2)S1 (stereo not given)

Out:
1. 1.09 µM
2. 3.11 µM
3. 1.75 µM
4. 2.36 µM

* * *

# System: MDA-MB-468 breast
# method: NCI tumour cell line growth inhibition, 48 h
I'd be grateful if you could share measured GI50 for these entries.

The following compounds have reported results that may help.
{"compound.structure": "C[C@H]1c2ccccc2CN1CCCOc1cc2c(cc1OCC1CC1)C1(CCCC1)C(N)=N2", "GI50": "813 nM"}
{"compound.structure": "OCc1ccc(N2CCCC2)cc1Cl", "GI50": "75.7 nM"}

In: Which GI50 is reported for this compound? Cc1ccc(NC(=O)Nc2nc3ccc([N+](=O)[O-])cc3s2)cc1
Out: 1710 nM

* * *

Please go through the items and note down their TGI.
# Tested on: MDA-MB-468 breast
# method: NCI tumour cell line growth inhibition, 48 h
One number for each entry, in µM.

Consider the following illustrative entries.
{"compound": "Oc1c(Cl)cc(Cl)c2cccnc12", "TGI / µM": 5.53}
{"compound": "COc1cccc(CC(C)=C(c2ccc(OCCCN(C)C)cc2)c2ccc(OCCCN(C)C)cc2)c1", "TGI / µM": 1.18}
{"compound": "Cc1c2ccncc2c(C)c2c1c1cc(CO)ccc1n2C", "TGI / µM": 0.327}
{"compound": "N/C(=N\\c1nc2ccccc2s1)NC(=NC1CCCCC1)NC1CCCCC1", "TGI / µM": 3.41}
{"compound": "CCOC(=O)C1=C(C)N2C(=NC3=C(CCC/C3=C\\c3ccc(Cl)cc3)C2c2ccc(Cl)cc2)S1 (centres undefined)", "TGI / µM": 6.19}

Please look at the following compound next.
In: What is its TGI for MDA-MB-468 breast? Entry: Nc1ncccc1-c1nc2ccc(-c3ccccc3)nc2n1-c1ccc(C2(N)CCC2)cc1
Out: 1.99

* * *

Exercise: for every item that follows, state its recorded TGI.
# System: MDA-MB-468 breast
# method: NCI tumour cell line growth inhibition, 48 h

Guide cases for TGI, answers given:
{"compound": "CCN1C(=O)N(CC)C2C1NN=c1s/c(=C\\c3ccc[nH]3)c(=O)n12 (stereo not drawn)", "endpoint.label": "TGI", "assay.result": "> 100 µM"}
{"compound": "NC(=O)c1cccc(-c2cc(C(N)=O)ccc2Cl)c1", "endpoint.label": "TGI", "assay.result": "> 100 µM"}

// next entry
In: Fill blank: measured TGI of the compound COc1ccc(Oc2ccccc2NC(=O)CNC(=O)c2cccc3ccccc23)cc1 is ____.
Out: > 25 µM
